B1: APBB1IP (parent)
chain: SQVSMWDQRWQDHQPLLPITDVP

Variants of: B1
Test: protein stability index of a GFP-peptide fusion (GPS, HEK-293T) (PSI 1-6); higher = more stable;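 further: lentivirally expressed fusions sorted by FACS into six bins by GFP to DsRed ratio, PSI derived from sequencing read proportions per bin multiplied by bin number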
Conditions Used: c terminus: native
# key: entry, value: protein stability index
Measured Attribute: protein stability index

{"columns": ["Mutation Id", "Measured Attribute", "Measured Value"],
 "data": [
  ["V22R", "protein stability index", 2.99],
  ["Q2K", "protein stability index", 2.57],
  ["I19P", "protein stability index", 3.04],
  ["Q2L", "protein stability index", 1.5],
  ["H13W", "protein stability index", 1.5],
  ["M5P", "protein stability index", 3.15],
  ["Q2V", "protein stability index", 2.33],
  ["D7Q", "protein stability index", 2.44],
  ["P15G", "protein stability index", 3.45],
  ["M5R", "protein stability index", 3.34],
  ["Q8Y", "protein stability index", 2.21],
  ["D21N", "protein stability index", 1.7],
  ["Q14D", "protein stability index", 2.74],
  ["V3S", "protein stability index", 2.84],
  ["S1W", "protein stability index", 3.14],
  ["P18T", "protein stability index", 1.31],
  ["L17E", "protein stability index", 3.68],
  ["Q2A", "protein stability index", 1.88],
  ["V22Q", "protein stability index", 2.98],
  ["R9D", "protein stability index", 3.69],
  ["W6L", "protein stability index", 3.09],
  ["L16V", "protein stability index", 2.54]
]}

Data origin, for the record: the supplement of paper PMC10567573
